Reference source: PubChem BioAssay (NCI)

Recorded growth values for a group of compounds are listed next.
- System: NCI/ADR-RES ovarian
- assay-notes: NCI-60 one-dose screen, 48 h (100 = growth as untreated, 0 = no growth, -100 = all killed)
- cond: 10 µM unless noted
This is part of a sample that, as a whole, favours compounds with a hit. Of some 83,000 tested, about 20% had one in any assay.
All answers are understood in %, so give the number only.

Below, each entry is followed by its recorded growth result.
| compound | target | obs-value |
| --- | --- | --- |
| CCN1C(=O)N(CC)C2C1NN=c1s/c(=C\c3cc4ccccc4[nH]3)c(=O)n12 (configuration not stated) | NCI/ADR-RES ovarian | 3.61 |
| Cc1ccc(-c2csc(NC(=O)N3CCN(c4cc5c(cc4F)c(=O)c(C(=O)O)cn5C4CC4)CC3)n2)cc1 | NCI/ADR-RES ovarian | 21.8 |
| COc1cc2c(c(OC)c1OC)C(=O)N[C@@H]1[C@@H](O)[C@@H](O)[C@H](O)C[C@@H]21 | NCI/ADR-RES ovarian | 108 |
| CCn1cc(C(=O)N/N=C/c2ccc(Br)cc2)c(=O)c2cc(F)c(N3CCNC(C)C3)c(F)c21 (configuration not stated) | NCI/ADR-RES ovarian | 83.3 |
| Cc1ccc(C)c(-n2c(-c3ccc(Br)cc3)csc2=NC(=O)c2ccccc2F)c1 | NCI/ADR-RES ovarian | 56.7 |

# input Which growth is reported for this compound? O=C1CCC(C(=O)NN(c2ccccc2)c2ccccc2)N1 (configuration not stated)
# output 111

# input Again, but for `COc1cc(C(=O)c2c(-c3ccccc3)oc3c(OC)cccc23)cc(OC)c1O`
# output 10.5

# input Again, but for `CCN(CC)CCNC(=O)c1ccc(-c2nc3ccc4[nH]ncc4c3c3c2CCCC3)cc1`
# output 70.9

# input Again, but for `O=C1NC(=C(Cl)Cl)/C(=N/S(=O)(=O)N2CCCCC2)N1`
# output 98.5

# input Again, but for `CCn1cc(CNc2ccc(C(=O)Nc3cc4cc(OC)c(OC)cc4c(C)n3)cc2)c(C)n1`
# output 13.4

# input Again, but for `O=C(O)c1cn(C2CC2)c2cc(N3CCN(C(=O)N/N=C/c4ccccc4)CC3)c(F)cc2c1=O`
# output 97.4

# input Again, but for O=C(CN1C(=O)NC2NC(=O)NC21)N/N=C/c1ccc(Cl)cc1Cl (configuration not stated)
# output 104
